- TEST SUMMARY: Plasma pharmacokinetics of DMT and DMT N-oxide after IN or SC DMT (LC-QQQ-MS, non-compartmental analysis)
- Type: in vivo, male Sprague-Dawley rats
- TEST PARAMETERS: male, Sprague-Dawley, rat, plasma, inhaled or intranasal, 3 mg/kg, plasma DMT, 3 mg/kg IN, mean ± SEM, n = 5 rats; read-out: Cmax
- Protocol: For the IN DMT experiments, blood samples (300 µL) were withdrawn via IV catheters immediately before (time zero) and at 5, 10, 20, 40, and 80 min after injection. For the SC DMT experiments, blood samples were withdrawn immediately before (time zero) and at 10, 20, 40, 80, and 160 min after injection. […] Samples were extracted using a basic solid phase extraction (SPE) procedure. […] Quality controls were assessed at 15, 60, 150, and 800 ng/mL. […]
MEASUREMENT NAME: Cmax (ng/mL)
Numeric only. Scale: ng/mL

The recorded Cmax for entry CN(C)CCc1c[nH]c2ccccc12 equals 55.6
